B1: SMG5 (parent)
chain: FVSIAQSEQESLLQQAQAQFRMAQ

Variants of: B1
Assay: protein stability index of a GFP-peptide fusion (GPS, HEK-293T) (PSI 1-6); higher = more stable;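 also: lentivirally expressed fusions sorted by FACS into six bins by GFP to DsRed ratio, PSI derived from sequencing read proportions per bin multiplied by bin number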
Settings: c terminus: a fixed tail appended
Label true (1) when protein stability index >= 2; otherwise false (0).

Hi team, for `L13I` , is the recorded protein stability index at or above 2?
true (1)

Check if protein stability index >= 2 (inclusive). Item: `Q9F`
true (1)

Identify whether the reported protein stability index of the following variant is 2 or greater: `Q24P`
true (1)

Please indicate if the recorded protein stability index for `E10G` meets or exceeds 2.
false (0)

Does protein stability index meet or surpass 2 for `M22K` ?
true (1)

I'd appreciate it if you could say whether `M22Y` has protein stability index at least equal to 2.
true (1)

Reported protein stability index at or above 2? `F1D`
true (1)

Given the entry `I4S` , answer whether its protein stability index meets or surpasses 2.
false (0)

In plain terms: is recorded protein stability index at least 2 for `A23F` ?
false (0)

API: above_or_equal(metric=protein stability index, cutoff=2) for item `E8D`
true (1)

# bool: protein stability index of `Q24C` >= 2
false (0)

hey, is protein stability index for this one >= 2? `E8Q`
true (1)

Is it the case that `S3E` has protein stability index reaching or exceeding 2?
true (1)

Hi, just wondering whether `A23E` shows protein stability index of 2 or higher.
true (1)

Answer whether protein stability index of `Q24D` is greater than or equal to 2.
true (1)

Assess whether reported protein stability index for `S11Q` sits at 2 or higher.
true (1)

Is it the case that `E10T` has protein stability index reaching or exceeding 2?
false (0)

Given the entry `S3R` , answer whether its protein stability index meets or surpasses 2.
true (1)

Say whether `Q6D` shows protein stability index of 2 or more.
true (1)

Would you say `V2K` shows protein stability index at minimum 2?
true (1)
